Biological target: UniProt:P11802
Sequence (P11802 2-303): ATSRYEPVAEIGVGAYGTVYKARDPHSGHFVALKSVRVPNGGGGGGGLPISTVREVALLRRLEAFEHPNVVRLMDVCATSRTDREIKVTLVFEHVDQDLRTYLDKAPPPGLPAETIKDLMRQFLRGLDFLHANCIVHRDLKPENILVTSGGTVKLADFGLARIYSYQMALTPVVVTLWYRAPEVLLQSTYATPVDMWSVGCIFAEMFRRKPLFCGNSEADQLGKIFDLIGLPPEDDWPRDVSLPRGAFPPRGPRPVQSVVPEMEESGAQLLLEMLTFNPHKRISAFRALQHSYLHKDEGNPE
Sequence (P24385 whole entry partner): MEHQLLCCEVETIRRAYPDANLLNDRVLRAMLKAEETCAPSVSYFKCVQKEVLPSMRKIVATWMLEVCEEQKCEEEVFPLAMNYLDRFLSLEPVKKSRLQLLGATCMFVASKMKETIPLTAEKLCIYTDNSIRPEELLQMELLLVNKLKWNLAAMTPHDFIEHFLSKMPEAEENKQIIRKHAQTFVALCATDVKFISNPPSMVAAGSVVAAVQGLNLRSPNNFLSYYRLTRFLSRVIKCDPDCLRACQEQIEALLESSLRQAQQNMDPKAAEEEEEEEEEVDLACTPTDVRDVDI
Test: Phospho-Serine 795 Rb ELISA assay in JEKO-1 cells
Conditions: overnight treatment, phospho-Rb S795, read-out: CDK4 pRB S795 ELISA JEKO-1 cells IC50
pIC50: −log10 of the molar value.
measurement_kind: pIC50

>>> recorded_number("Cc1nc2c(F)cc(-c3nc(N[C@@H]4CCN(S(C)(=O)=O)C[C@H]4O)ncc3Cl)cc2n1[C@H](C)CN")
6.34

P = CC(N)c1nc2c(F)cc(-c3nc(N[C@@H]4CCN(S(C)(=O)=O)C[C@H]4O)ncc3Cl)cc2n1C(C)C (single isomer, unassigned) [Example A47]
Q = CC(C)n1c(CC2(N)CCCC2)nc2c(F)cc(-c3nc(N[C@@H]4CCOC[C@H]4O)ncc3Cl)cc21
R = CC(C)n1c(C2CCO2)nc2c(F)cc(-c3nc(N[C@@H]4CCN(S(C)(=O)=O)C[C@H]4O)ncc3Cl)cc21 (single isomer, unassigned)
S = Cc1nc2c(F)cc(-c3nc(N[C@@H]4CCOC[C@H]4O)ncc3Cl)cc2n1C(C)(C)CN
Query string: Form: Sort by [pIC50] Order [ ascending ] A ranking is expressed here by listing the labels in the requested order.
Result string: P, S, Q, R

* * *

Biological target: CDK6 (Homo sapiens (Human), UniProt Q00534)
Sequence (Q00534 whole entry): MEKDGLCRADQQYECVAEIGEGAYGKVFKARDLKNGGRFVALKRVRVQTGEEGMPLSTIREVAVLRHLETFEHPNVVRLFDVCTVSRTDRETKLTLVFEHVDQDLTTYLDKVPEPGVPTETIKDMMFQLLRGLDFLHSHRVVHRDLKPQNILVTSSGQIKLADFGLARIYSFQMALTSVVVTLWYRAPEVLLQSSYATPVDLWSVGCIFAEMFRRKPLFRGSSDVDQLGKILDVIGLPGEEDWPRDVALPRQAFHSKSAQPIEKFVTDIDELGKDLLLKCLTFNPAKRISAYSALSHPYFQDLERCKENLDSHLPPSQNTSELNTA
Sequence (P30281 whole entry partner): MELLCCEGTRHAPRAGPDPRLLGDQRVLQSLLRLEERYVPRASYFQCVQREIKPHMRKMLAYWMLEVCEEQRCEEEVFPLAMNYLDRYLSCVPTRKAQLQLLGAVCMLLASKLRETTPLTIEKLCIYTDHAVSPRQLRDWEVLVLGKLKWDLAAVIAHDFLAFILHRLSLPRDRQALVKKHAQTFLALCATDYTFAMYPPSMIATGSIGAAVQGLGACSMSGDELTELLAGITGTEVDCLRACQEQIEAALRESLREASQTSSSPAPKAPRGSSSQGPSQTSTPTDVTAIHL
Experiment: Phospho-Serine 795 Rb ELISA assay in MV4-11 cells
Settings: overnight treatment, phospho-Rb S795, read-out: CDK6 pRB S795 ELISA MV4-11 cells IC50
measurement_kind: IC50 (nM)

Here are 5 molecules together with their reported answers.
>>> recorded_number("CC(C)n1cnc2c(F)cc(-c3nc(N[C@@H]4CCN(C(=O)C5(F)CNC5)C[C@H]4O)ncc3Cl)cc21")
188
>>> recorded_number("CC(=O)N1CC[C@@H](Nc2ncc(F)c(-c3cc(F)c4nc(C)n(C(C)C)c4c3)n2)[C@H](O)C1")
363
>>> recorded_number("CC(C)n1c(C2COC2)nc2c(F)cc(-c3nc(N[C@@H]4CCN(S(C)(=O)=O)C[C@H]4O)ncc3Cl)cc21")
63.5
>>> recorded_number("Cc1nc2cc(F)c(-c3ccnc(N[C@@H]4CCN(S(C)(=O)=O)C[C@H]4O)n3)cc2n1C(C)C")
541
>>> recorded_number("CC(C)n1c(CN2CC(O)C2)nc2c(F)cc(-c3nc(N[C@@H]4CCOC[C@H]4O)ncc3Cl)cc21")
423

P = Cc1nc2c(F)cc(-c3nc(N[C@@H]4CCN(S(C)(=O)=O)C[C@H]4O)ncc3Cl)cc2n1C(C)C
Q = Cc1nc2cc(F)c(-c3nc(N[C@@H]4CCN(S(C)(=O)=O)C[C@H]4O)ncc3Cl)cc2n1C(C)C
Query string: Dear colleague, could you let me know whether P or Q has the lower recorded IC50? Thanks. Returns: label corresponding to the selected item.
Result string: P
(P: 76.5 nM, Q: 192 nM)

* * *

Target: CDK6 (Homo sapiens (Human), UniProt Q00534)
Assay: Phospho-Serine 795 Rb ELISA assay in MV4-11 cells
Details: overnight treatment, phospho-Rb S795, read-out: CDK6 pRB S795 ELISA MV4-11 cells IC50
pIC50: −log10 of the molar value.
measurement_kind: pIC50

>>> recorded_number("COCc1nc2c(F)cc(-c3nc(N[C@@H]4CCN(S(C)(=O)=O)C[C@H]4O)ncc3Cl)cc2n1C(C)C [Example A75]")
6.99
>>> recorded_number("CC(C)c1c2cc(-c3nc(N[C@@H]4CCN(S(C)(=O)=O)C[C@H]4O)ncc3Cl)ccc2nn1C [Example A28]")
6.88
>>> recorded_number("COCC(C)n1c(C)nc2c(F)cc(-c3nc(N[C@@H]4CCN(S(C)(=O)=O)C[C@H]4O)ncc3Cl)cc21 (single isomer, unassigned) [Example A74]")
7.05
